Where do these numbers come from? They come from the MegaScale stability set (Tsuboyama et al. 2023).

B1: HEEH_KT_rd6_0790 (parent)
chain: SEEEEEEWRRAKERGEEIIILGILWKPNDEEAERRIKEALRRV

Variants of: B1
Assay: folding stability dG (cDNA display proteolysis); higher = more stable
Conditions: PBS, room temperature
What folding stability dG was measured for each of the following?

Example cases with answers are listed next.
# mutation label, property name, meas value
measured = [
    ("P27I", "folding stability dG", "1.27 kcal/mol"),
    ("N28H", "folding stability dG", "1.97 kcal/mol"),
    ("A32E", "folding stability dG", "1.25 kcal/mol"),
    ("R9D", "folding stability dG", "1.36 kcal/mol"),
    ("L21P", "folding stability dG", "0.723 kcal/mol"),
    ("E2S", "folding stability dG", "2.61 kcal/mol"),
    ("E5M", "folding stability dG", "2.1 kcal/mol"),
    ("E33R", "folding stability dG", "1.29 kcal/mol"),
    ("P27K", "folding stability dG", "1.12 kcal/mol"),
    ("I36R", "folding stability dG", "0.952 kcal/mol"),
]

Quick batch: folding stability dG for everything below.
1. L24K
2. R35F

2.14 kcal/mol
1.38 kcal/mol

List folding stability dG for every entry below, keeping the order given.
1. R41M
2. E17A
3. K12L
4. E2D
5. E4V
6. L40Y
7. N28I

1. 1.9 kcal/mol
2. 2.12 kcal/mol
3. 1.86 kcal/mol
4. 2.16 kcal/mol
5. 2.71 kcal/mol
6. 1.1 kcal/mol
7. 0.872 kcal/mol

Can you give me folding stability dG for all of these, one by one?
1. G15A
2. I20N
3. E5D

1.39 kcal/mol
0.804 kcal/mol
1.93 kcal/mol
